Values were extracted from patent US4465851A.

Target: Trypsin (Bos taurus)
Sequence (P00760 24-246): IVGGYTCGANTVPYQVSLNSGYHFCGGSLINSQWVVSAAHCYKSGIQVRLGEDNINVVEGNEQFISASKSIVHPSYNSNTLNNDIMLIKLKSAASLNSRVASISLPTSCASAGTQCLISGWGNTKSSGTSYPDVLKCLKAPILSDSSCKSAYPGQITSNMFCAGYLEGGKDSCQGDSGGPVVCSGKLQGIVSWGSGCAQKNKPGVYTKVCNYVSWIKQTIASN
pIC50: −log10 of the molar value. Structures can show the parent of a compound that is named as a salt.
recorded-endpoint: pIC50

compound | pIC50
N=C(N)NC[C@H]1CC[C@H](C(=O)Oc2ccc(Br)cc2)CC1 [Compound 6, hydrochloride] | 3.59
CC(C)(C)c1ccc(OC(=O)[C@H]2CC[C@H](CNC(=N)N)CC2)cc1 [Compound 2, hydrochloride] | 3.77

(P) N=C(N)NC[C@H]1CC[C@H](C(=O)Oc2ccccc2Cl)CC1 [Compound 5, hydrochloride]
(Q) N=C(N)NC[C@H]1CC[C@H](C(=O)Oc2ccc([N+](=O)[O-])cc2)CC1 [Compound 15, hydrochloride]
(R) Cc1cc(OC(=O)[C@H]2CC[C@H](CNC(=N)N)CC2)c(C(C)C)cc1Cl [Compound 14, hydrochloride]
-- ask // sort entries: pIC50, high to low Reply with the item labels sorted in the order that was asked for.
-- reply Q, R, P
(Q: 4.05, R: 3.72, P: 3.41)
